Biological target: PSMA, lysates of LNCaP cell extracts (Homo sapiens (Human))
Sequence (Q04609 whole entry): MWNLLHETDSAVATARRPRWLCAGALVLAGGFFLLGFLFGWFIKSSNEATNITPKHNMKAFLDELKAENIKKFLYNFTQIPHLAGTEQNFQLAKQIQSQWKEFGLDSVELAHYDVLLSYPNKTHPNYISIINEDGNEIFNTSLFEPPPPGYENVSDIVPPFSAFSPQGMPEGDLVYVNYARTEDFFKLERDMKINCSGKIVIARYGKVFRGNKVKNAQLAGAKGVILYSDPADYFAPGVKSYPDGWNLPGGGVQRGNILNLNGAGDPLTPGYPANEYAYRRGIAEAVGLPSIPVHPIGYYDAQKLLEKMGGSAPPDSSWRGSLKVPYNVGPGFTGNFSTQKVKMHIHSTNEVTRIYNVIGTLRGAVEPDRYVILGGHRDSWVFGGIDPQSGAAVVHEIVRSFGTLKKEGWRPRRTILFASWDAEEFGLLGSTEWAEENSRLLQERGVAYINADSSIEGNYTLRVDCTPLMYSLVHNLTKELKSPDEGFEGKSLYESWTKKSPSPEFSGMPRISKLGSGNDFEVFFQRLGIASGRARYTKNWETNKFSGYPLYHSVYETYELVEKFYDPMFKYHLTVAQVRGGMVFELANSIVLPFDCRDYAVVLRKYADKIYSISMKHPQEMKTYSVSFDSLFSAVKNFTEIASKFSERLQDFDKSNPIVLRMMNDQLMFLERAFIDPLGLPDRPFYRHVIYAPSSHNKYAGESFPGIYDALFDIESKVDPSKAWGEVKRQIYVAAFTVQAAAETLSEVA
Assay: fluorescence-based PSMA inhibition assay (Amplex Red glutamic acid kit)
Format: biochemical
Conditions: 4 μM NAAG
metric: Ki (nM)
Give your result in nM as a bare value.

Form: compound = O=C(O)CCC(NC(=O)NC(CCCCNC(=O)c1ccc(F)cc1)C(=O)O)C(=O)O (stereo not shown) ; Ki = 0.194

* * *

Biological target: NAALADase (PSMA) prepared from LNCaP cell lysates (Homo sapiens (Human))
Test: NAALADase (radiometric) assay, NAAG hydrolysis
Format: biochemical
Conditions: [3H]NAAG 30 nM
metric: Ki (nM)
API: value field is a number in nM; no unit string.

Ki reported for this molecule O=C(O)CCC(NC(=O)NC(CCCCNC(=O)c1ccc(F)cc1)C(=O)O)C(=O)O (stereo not shown) [Compound 6] : 0.256
